Experimental target: GppNp-loaded HIS-KRAS(G12D, aa 1-169) and cRAF RBD (Homo sapiens, UniProt P01116, G12D)
Construct: GppNp-loaded HIS-KRAS(G12D, aa 1-169)
Sequence (P01116 1-169 isoform P01116-2 G12D): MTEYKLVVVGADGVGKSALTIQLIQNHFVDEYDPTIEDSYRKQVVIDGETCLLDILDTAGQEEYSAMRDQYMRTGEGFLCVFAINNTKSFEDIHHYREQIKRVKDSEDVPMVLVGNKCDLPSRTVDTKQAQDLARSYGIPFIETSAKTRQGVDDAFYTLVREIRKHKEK
Assay notes: GTP-KRAS and cRAF interaction assay (HTRF)
Condition info: 2 hours at 25° C.
# IC50 values compiled below
Quantity measured: IC50 (nM)

Structure smiles string | Observed value
C#Cc1cccc2cc(O)cc(-c3c(F)cc4c(N5CC6CCC(C5)N6)nc(OCC5(CN6CCC6)CC5)nc4c3F)c12 | 247
C#Cc1cccc2cc(O)cc(-c3c(F)cc4c(N5CC6CCC(C5)N6)nc(OCC5(CN6CCCOCC6)CC5)nc4c3F)c12 | 50.1
C#Cc1cccc2cc(O)cc(-c3c(F)cc4c(N5CC6CCC(C5)N6)nc(OCC5(CN6CCn7cncc7C6)CC5)nc4c3F)c12 | 818
C#Cc1c(F)ccc2cc(O)cc(-c3c(C(F)(F)F)cc4c(N5CC6CCC(C5)N6)nc(OCC5(CN6C[C@@H]7C[C@H]6CO7)CC5)nc4c3F)c12 | 8.09
